- TARGET OR TEST SYSTEM: full-length beta-Catenin (Uniprot ID P35222) (Homo sapiens (Human)) (UniProt P35222)
- Sequence (P35222 whole entry): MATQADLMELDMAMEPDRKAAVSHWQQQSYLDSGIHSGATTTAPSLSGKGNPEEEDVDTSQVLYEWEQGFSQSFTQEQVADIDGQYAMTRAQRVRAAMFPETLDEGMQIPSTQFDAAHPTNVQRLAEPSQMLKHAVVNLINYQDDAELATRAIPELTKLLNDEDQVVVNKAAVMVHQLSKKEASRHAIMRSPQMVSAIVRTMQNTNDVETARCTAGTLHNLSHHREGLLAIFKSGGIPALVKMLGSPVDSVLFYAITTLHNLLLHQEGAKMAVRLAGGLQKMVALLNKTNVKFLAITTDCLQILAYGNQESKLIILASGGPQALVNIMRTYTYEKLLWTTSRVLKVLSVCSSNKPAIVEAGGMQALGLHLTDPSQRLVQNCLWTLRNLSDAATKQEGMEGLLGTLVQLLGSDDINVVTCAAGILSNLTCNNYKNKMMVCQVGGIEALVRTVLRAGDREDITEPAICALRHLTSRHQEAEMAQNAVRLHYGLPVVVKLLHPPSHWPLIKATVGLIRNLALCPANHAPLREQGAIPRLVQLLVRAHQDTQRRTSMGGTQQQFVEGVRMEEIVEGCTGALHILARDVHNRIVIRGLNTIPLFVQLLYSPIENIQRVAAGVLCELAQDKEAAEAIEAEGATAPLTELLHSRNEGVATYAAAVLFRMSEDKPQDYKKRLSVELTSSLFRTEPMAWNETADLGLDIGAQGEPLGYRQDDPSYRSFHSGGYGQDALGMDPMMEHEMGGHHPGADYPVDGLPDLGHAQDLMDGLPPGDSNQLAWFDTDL
- ASSAY SUMMARY: fluorescence polarization competition; displacement of 5FAM-TCF4(10-53) from full-length beta-catenin
Starred links: 1 amine or outer side, 2 acyl side, 3 side chain; linkers in the order of their positions; H or OH if unused. Positions of bridges follow the written chain, without caps; N, C: chain ends. Non-standard residues stand in square brackets, D forms with d. Primed or numbered codes have the meaning given here. B5(4) = 2,2-bis(4-pentenyl)glycine = 2-amino-2-(pent-4-en-1-yl)hept-6-enoic acid (stitching residue), C=CCCCC(CCCC=C)(N[*:1])C(=O)[*:2]; Bta = N[C@@H](Cc1csc2ccccc12)C(=O)O; αAllylPro = C=CC[C@@]1(C(=O)O)CCCN1; S8 = C=CCCCCCC[C@](C)(N)C(=O)O; hLeu = CC(C)CC[C@H](N)C(=O)O; Abu = CC[C@H](N)C(=O)O
PROPERTY NAME: EC50 (nM)

> print(dat)
                                     binder  property.name  test.result
1  Ac-[αAllylPro]D[Abu][B5(4)]DEAAFQ[S8]F[Bta]Q-NH2 (staple 1-4, 4-11) [I-568]           EC50           73

(1) Ac-[αAllylPro]D[Abu][B5(4)]DEAAFQ[S8]F[Bta]H-NH2 (staple 1-4, 4-11) [I-570]
(2) Ac-[αAllylPro]D[hLeu][B5(4)]DEAAFQ[S8]F[Bta]Q-NH2 (staple 1-4, 4-11) [I-545]
Lab note: check whether 1 or 2 has the lower measured EC50. Your choice should be expressed through its label.
2
(2: 21 nM, 1: 56 nM)

The origin of these recorded values is patent US20240116985A1.
